Test: Life-span-increasing effect on irradiation of a lethal dose of radiation
Assay type: in vivo, mouse (BDF1)
Conditions: day 20; 10 mice/group; 9 Gy X-ray; 0.1 mg/kg i.v. days 0, 4, 8; controls per series 4, 5, 1, 2, 3, 0
I'd be grateful if you could share measured Number of Surviving Mice for these entries.
One number for each entry, in mice.

INSERT INTO assay_data (structure, metric_name, readout_number) VALUES
  ('CCCCCCCCCCCCCCC[C@@H](O)[C@H](CO[C@H]1O[C@H](CO)[C@H](O)[C@H](O)[C@H]1O)NC(=O)CCCCCCCCCCCCC', 'Number of Surviving Mice', 9),
  ('CCCCCCCCCCCCCCCCCCCCCCCC(=O)N[C@@H](CO[C@H]1O[C@H](CO)[C@H](O)[C@H](O)[C@H]1O)[C@H](O)[C@H](O)CCCCCCCCCCC', 'Number of Surviving Mice', 8);

Return reported Number of Surviving Mice values for all items listed beneath this line.
1. CCCCCCCCCCCCCCCCCCCCCC[C@@H](O)C(=O)N[C@@H](CO[C@H]1O[C@H](CO)[C@H](O)[C@H](O)[C@H]1O)[C@H](O)CCCCCCCCCCCCCCC
2. CCCCCCCCCCCCCCCCCCCCCC[C@@H](O)C(=O)N[C@@H](CO[C@H]1O[C@H](CO)[C@H](O)[C@H](O)[C@H]1O)[C@H](O)[C@H](O)CCCCCCCCCCCCCC
3. CCCCCCCC/C=C\CCCCCCCC(=O)N[C@@H](CO[C@H]1O[C@H](CO)[C@H](O)[C@H](O)[C@H]1O)[C@H](O)CCCCCCCCCCCCCCC

10
10
8

---

Assay: Life-span-increasing effect on irradiation of a lethal dose of radiation
Type: in vivo, mouse (BDF1)
Settings: day 15; 10 mice/group; 9 Gy X-ray; 0.1 mg/kg i.v. days 0, 4, 8; controls per series 8, 9, 5, 5, 7, 1
metric-name: Number of Surviving Mice (mice)
Answers are plain numbers, in mice.

Could I get Number of Surviving Mice for every one of these entries?
1. CCCCCCCCCCCCCCCCCCCCCC(=O)N[C@@H](CO[C@H]1O[C@H](CO)[C@H](O)[C@H](O)[C@H]1O)[C@H](O)CCCCCCCCCCCCCCC
2. CCCCCCCCCCCCCCCCCCCCCC[C@@H](O)C(=O)N[C@@H](CO[C@H]1O[C@H](CO)[C@H](O)[C@H](O)[C@H]1O)[C@H](O)[C@H](O)CCCCCCCCCCCCCC
3. CCCCCCCCCCCCCCCCCCCCCCCC(=O)N[C@@H](CO[C@H]1O[C@H](CO)[C@H](O)[C@H](O)[C@H]1O)[C@H](O)[C@H](O)CCCCCCCCCCC

1. 10
2. 10
3. 10

Could you tell me Number of Surviving Mice for each of these compounds? They are listed below.
1. CCCCCCCCCCCCCCCCCCCCCCCC(=O)N[C@@H](CO[C@H]1O[C@H](CO)[C@H](O)[C@H](O)[C@H]1O)[C@H](O)[C@H](O)CCCCCCCCCCCCCC
2. CCCCCCCCCCCCCCC[C@@H](O)[C@H](CO[C@H]1O[C@H](CO)[C@H](O)[C@H](O)[C@H]1O)NC(=O)CCCCCCC

[6, 8]

I'm hoping you can list Number of Surviving Mice for every compound here, please.
1. CCCCCCCCCCCCCCCCCCCCCC[C@H](O)C(=O)N[C@@H](CO[C@H]1O[C@H](CO)[C@H](O)[C@H](O)[C@H]1O)[C@H](O)[C@H](O)CCCCCCCCCCCCC
2. CCCCCCCCCCCCCCCCCCCC(=O)N[C@@H](CO[C@H]1O[C@H](CO)[C@H](O)[C@H](O)[C@H]1O)[C@H](O)CCCCCCCCCCCCCCC
3. CCCCCCCCCCCCCCCCCCCCCCCCCC(=O)N[C@@H](CO[C@H]1O[C@H](CO)[C@H](O)[C@H](O)[C@H]1O)[C@H](O)[C@H](O)CCCCCCCCCCCCCC
4. CCCCCCCC/C=C\CCCCCCCC(=O)N[C@@H](CO[C@H]1O[C@H](CO)[C@H](O)[C@H](O)[C@H]1O)[C@H](O)CCCCCCCCCCCCCCC
5. CCCCCCCCCCCCCCCCCCCCCC[C@@H](O)C(=O)N[C@@H](CO[C@H]1O[C@H](CO)[C@H](O)[C@H](O)[C@H]1O)[C@H](O)[C@H](O)CCCCCCCCCCCCC
6. CCCCCCCCCCCCCCCCCCCCCCCC(=O)N[C@@H](CO[C@H]1O[C@H](CO)[C@H](O)[C@H](O)[C@H]1O)[C@H](O)[C@H](O)CCCCCCCCCCCC(C)C
7. CCCCCCCCCCCCCCCCCCCCCC[C@H](O)C(=O)N[C@@H](CO[C@H]1O[C@H](CO)[C@H](O)[C@H](O)[C@H]1O)[C@H](O)[C@H](O)CCCCCCCCCCCC(C)C
8. CCCCCCCCCCCCC/C=C/[C@@H](O)[C@H](CO[C@H]1O[C@H](CO)[C@H](O)[C@H](O)[C@H]1O)NC(=O)CCCCCCCCCCCCC

10
9
8
9
10
10
10
9

For each listed entry, give its Number of Surviving Mice.
1. CCCCCCCCCCCCCCCCCCCCCCCC(=O)N[C@@H](CO[C@H]1O[C@H](CO)[C@H](O)[C@H](O)[C@H]1O)[C@H](O)CCCCCCCCCCC
2. CCCCCCCCCCCCCCCCCCCCCCCCCCCC(=O)N[C@@H](CO[C@H]1O[C@H](CO)[C@H](O)[C@H](O)[C@H]1O)[C@H](O)[C@H](O)CCCCCCCCCCCCC
3. CCCCCCCCCCCCCCCCCCCCCCCC(=O)N[C@@H](CO[C@H]1O[C@H](CO)[C@H](O)[C@H](O)[C@H]1O)[C@H](O)[C@H](O)CCCCCCCCCCCCC
4. CCCCCCCCCCCCCC(=O)N[C@@H](CO[C@H]1O[C@H](CO)[C@H](O)[C@H](O)[C@H]1O)[C@H](O)CCCCCCCCCCCCC
5. CCCCCCCCCCCCCCCCCCCCCC[C@@H](O)C(=O)N[C@@H](CO[C@H]1O[C@H](CO)[C@H](O)[C@H](O)[C@H]1O)[C@H](O)[C@H](O)CCCCCCCCCCC
6. CCCCCCCCCCCCCCCCCCCCCCCCCC(=O)N[C@@H](CO[C@H]1O[C@H](CO)[C@H](O)[C@H](O)[C@H]1O)[C@H](O)[C@H](O)CCCCCCCCCCCCC
7. CCCCCCCCCCCCCCCCCCCCCC[C@@H](O)C(=O)N[C@@H](CO[C@H]1O[C@H](CO)[C@H](O)[C@H](O)[C@H]1O)[C@H](O)CCCCCCCCCCCCCCC

1. 8
2. 10
3. 10
4. 8
5. 10
6. 8
7. 10

---

Give Number of Surviving Mice for every item shown.
Assay: Life-span-increasing effect on irradiation of a lethal dose of radiation
Assay type: in vivo, mouse (BDF1)
Conditions: day 30; 10 mice/group; 9 Gy X-ray; 0.1 mg/kg i.v. days 0, 4, 8; controls per series 1, 1, 0, 0, 0, 0
One number for each entry, in mice.

For the 5 molecules below, give their Number of Surviving Mice values.
1. CCCCCCCCCCCCCCCCCCCCCCCC(=O)N[C@@H](CO[C@H]1O[C@H](CO)[C@H](O)[C@H](O)[C@H]1O)[C@H](O)[C@H](O)CCCCCCCCCCCCCC
2. CCCCCCCCCCCCCCCCCCCCCCCC(=O)N[C@@H](CO[C@H]1O[C@H](CO)[C@H](O)[C@H](O)[C@H]1O)[C@H](O)[C@H](O)CCCCCCC
3. CCCCCCCCCCCCC/C=C/[C@@H](O)[C@H](CO[C@H]1O[C@H](CO)[C@H](O)[C@H](O)[C@H]1O)NC(=O)CCCCCCCCCCCCCCCCC
4. CCCCCCCCCCCCCCC[C@@H](O)[C@H](CO[C@H]1O[C@H](CO)[C@H](O)[C@H](O)[C@H]1O)NC(=O)CCCCCCC
5. CCCCCCCCCCCCCCCCCCCCCCCC(=O)N[C@@H](CO[C@H]1O[C@H](CO)[C@H](O)[C@H](O)[C@H]1O)[C@H](O)CCCCCCCCCCCCCCC

6
10
6
5
9

---

Test system: marrow cells (mononuclear cell fraction)
Test: Proliferation-stimulating effect on marrow cell of mouse (3H-TdR uptake)
Assay type: cell-based, mouse (BALB/c)
Settings: 10^0 μg/ml, percentage of control, 72 h
metric-name: activity at 1 µg/mL (%)
One number for each entry, in %.

Guide cases for activity at 1 µg/mL, answers given:
INSERT INTO results (structure, assay_system, metric_name, units_label, readout_number) VALUES
  ('CCCCCCCCCCCCCCCCCCCCCC[C@@H](O)C(=O)N[C@@H](CO[C@H]1O[C@H](CO)[C@H](O)[C@H](O)[C@H]1O)[C@H](O)[C@H](O)CCCCCCCCCCCCCC', 'marrow cells (mononuclear cell fraction)', 'activity at 1 µg/mL', '%', 799),
  ('CCCCCCCCCCCCCCCCCCCCCCCC(=O)N[C@@H](CO[C@H]1O[C@H](CO)[C@H](O)[C@H](O)[C@H]1O)[C@H](O)[C@H](O)CCCCCCCCCCCC(C)C', 'marrow cells (mononuclear cell fraction)', 'activity at 1 µg/mL', '%', 624),
  ('CCCCCCCCCCCCC/C=C/[C@@H](O)[C@H](CO[C@H]1O[C@H](CO)[C@H](O)[C@H](O)[C@H]1O)NC(=O)CCCCCCCCCCCCC', 'marrow cells (mononuclear cell fraction)', 'activity at 1 µg/mL', '%', 871);

Alright, here's another compound for you.
Entry "CCCCCCCCCCCCCCCCCCCCCC[C@@H](O)C(=O)N[C@@H](CO[C@H]1O[C@H](CO)[C@H](O)[C@H](O)[C@H]1O)[C@H](O)[C@H](O)CCCCCCC" ; activity at 1 µg/mL = 576

These entries and their values trace back to patent US6071884A.
